Data credit: paper PMC8041433

Molecular target: AChE in neural stem cell spheroids (Homo sapiens)
Sequence (P22303 32-614): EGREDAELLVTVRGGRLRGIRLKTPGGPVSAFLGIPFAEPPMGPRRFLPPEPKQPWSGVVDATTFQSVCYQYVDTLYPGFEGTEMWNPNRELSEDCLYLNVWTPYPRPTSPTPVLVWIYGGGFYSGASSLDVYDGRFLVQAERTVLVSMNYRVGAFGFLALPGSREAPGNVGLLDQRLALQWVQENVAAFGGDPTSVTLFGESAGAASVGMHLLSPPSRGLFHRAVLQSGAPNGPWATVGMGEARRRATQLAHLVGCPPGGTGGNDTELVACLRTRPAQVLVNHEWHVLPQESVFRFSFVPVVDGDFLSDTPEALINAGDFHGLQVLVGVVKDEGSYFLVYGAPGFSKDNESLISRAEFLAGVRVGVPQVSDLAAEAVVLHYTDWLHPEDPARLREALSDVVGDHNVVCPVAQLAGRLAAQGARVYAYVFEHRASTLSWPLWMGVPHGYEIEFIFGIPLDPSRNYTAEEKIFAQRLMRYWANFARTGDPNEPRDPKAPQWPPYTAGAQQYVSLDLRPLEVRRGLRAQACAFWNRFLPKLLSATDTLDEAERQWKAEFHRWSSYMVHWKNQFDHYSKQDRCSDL
Test: cell-based
Settings: potency (IC50), Neural stem cell spheroid (48 h)
readout-kind: pIC50
# pIC50: negative log10 of molar concentration; output just the value

Entry under review: CNC(=O)O/N=C/C(C)(C)[S+](C)[O-] (stereo not drawn) [Aldicarb sulfoxide] . Reported pIC50?
6.57

Entry under review: CCOP(=S)(OCC)Oc1ccc([N+](=O)[O-])cc1 . Reported pIC50?
5.04

Entry under review: CCOP(=S)(OCC)Oc1cc(-c2ccccc2)on1 . Reported pIC50?
5.77

Entry under review: CCOC(=O)C(SP(=S)(OC)OC)c1ccccc1 (stereo not drawn) [Phenthoate] . Reported pIC50?
5.06

Entry under review: Cc1ccc2c(n1)Oc1ccc(C(C)C(=O)OCC(=O)N(C)C)cc1C2 (stereo not drawn) [Mepranoprofen arbamel, reference compound] . Reported pIC50?
4.95

Entry under review: O=C(Nc1cccc(C2=NCCN2)c1)Nc1cccc(C2=NCCN2)c1 [Imidocarb dipropionate, reference compound] . Reported pIC50?
4.71

Entry under review: CNC(=O)ON=C(CSC)C(C)(C)C . Reported pIC50?
5.44

Entry under review: CCOC(=O)CCN(SN(C)C(=O)Oc1cccc2c1OC(C)(C)C2)C(C)C . Reported pIC50?
4.90

Entry under review: CCOP(=S)(OCC)Oc1cnc2ccccc2n1 . Reported pIC50?
5.53
